Protocol Text: Cytotoxicity determination in HepG2.2.15 cells (CCK-8 assay)
Type: cell-based
Condition Details: human, 6 days treatment, CCK-8, highest concentration 100 uM
Protocol: HepG2.2.15 (the HepG2.2.15 cell line can be produced by transfection of the HepG2 cell line as described in Sells, Chen, and Acs 1987 (Proc. Natl. Acad. Sci. USA 84: 1005-1009), and the HepG2 cell line is available from ATCC® under number HB-8065™) […] Cell viability was determined by CCK-8 assay. […] The absorbance at 450 nm wavelength and the absorbance at 630 nm wavelength as reference was measured. EC50 and CC50 values are calculated by the […] […]

- Compound: "CCOC(=O)C1=C(CN2CCN3C(=S)N(CC(C)(C)C(=O)O)CC3C2)NC(c2nccs2)=NC1c1cccc(F)c1Cl (single isomer, unassigned)"
  CC50 at 6 days / µM: 25.2
- Compound: "CCOC(=O)C1=C(CN2CCN3C(=S)N(CC(C)(C)C(=O)O)CC3C2)NC(c2nccs2)=NC1c1ccc(F)cc1Br (single isomer, unassigned) [Compound 13A]"
  CC50 at 6 days / µM: 14.7
- Compound: "CCOC(=O)C1=C(CN2CCN3C(=S)N(c4ccc(C(=O)O)cc4)CC3C2)NC(c2nccs2)=N[C@H]1c1cccc(F)c1C (stereo in doubt)"
  CC50 at 6 days / µM: 2.6
